tested on: Klebsiella pneumoniae; assay: Antimicrobial activity against Klebsiella pneumoniae ATCC 10031 by agar dilution method; type: functional; conditions: Klebsiella pneumoniae, ATCC 10031; read-out: MIC
Consider the following compounds; for each one, report its MIC.
Numbers only, in µg/mL.

CCCC(=O)O[C@H]1[C@H](C)O[C@@H](O[C@H]2[C@H](N(C)C)[C@@H](OC(C)=O)[C@H](O[C@H]3[C@@H](CC=O)C[C@@H](C)[C@@H](OC(C)=O)/C=C/C=C/C[C@@H](C)OC(=O)C[C@@H](O)[C@@H]3OC)O[C@@H]2C)C[C@@]1(C)O
100

Moving on to another compound below.
[in] Lab note: need MIC for CCCC(=O)O[C@H]1[C@H](C)O[C@@H](O[C@H]2[C@H](N(C)C)[C@@H](O)[C@H](O[C@H]3[C@@H](CC=O)C[C@@H](C)[C@@H](O)/C=C/C=C/C[C@@H](C)OC(=O)C[C@@H](O)[C@@H]3OC)O[C@@H]2C)C[C@@]1(C)O on Klebsiella pneumoniae, anyone have it?
[out] 12.5
